System tested: vanilloid receptor (Rattus norvegicus, UniProt O35433)
Construct: DRG nerve cells from the primary culture of 2 days were equilibrated; endogenous in cells; host or cells: primary culture of dorsal root ganglion neurons from neonatal SD rats
Sequence (O35433 whole entry): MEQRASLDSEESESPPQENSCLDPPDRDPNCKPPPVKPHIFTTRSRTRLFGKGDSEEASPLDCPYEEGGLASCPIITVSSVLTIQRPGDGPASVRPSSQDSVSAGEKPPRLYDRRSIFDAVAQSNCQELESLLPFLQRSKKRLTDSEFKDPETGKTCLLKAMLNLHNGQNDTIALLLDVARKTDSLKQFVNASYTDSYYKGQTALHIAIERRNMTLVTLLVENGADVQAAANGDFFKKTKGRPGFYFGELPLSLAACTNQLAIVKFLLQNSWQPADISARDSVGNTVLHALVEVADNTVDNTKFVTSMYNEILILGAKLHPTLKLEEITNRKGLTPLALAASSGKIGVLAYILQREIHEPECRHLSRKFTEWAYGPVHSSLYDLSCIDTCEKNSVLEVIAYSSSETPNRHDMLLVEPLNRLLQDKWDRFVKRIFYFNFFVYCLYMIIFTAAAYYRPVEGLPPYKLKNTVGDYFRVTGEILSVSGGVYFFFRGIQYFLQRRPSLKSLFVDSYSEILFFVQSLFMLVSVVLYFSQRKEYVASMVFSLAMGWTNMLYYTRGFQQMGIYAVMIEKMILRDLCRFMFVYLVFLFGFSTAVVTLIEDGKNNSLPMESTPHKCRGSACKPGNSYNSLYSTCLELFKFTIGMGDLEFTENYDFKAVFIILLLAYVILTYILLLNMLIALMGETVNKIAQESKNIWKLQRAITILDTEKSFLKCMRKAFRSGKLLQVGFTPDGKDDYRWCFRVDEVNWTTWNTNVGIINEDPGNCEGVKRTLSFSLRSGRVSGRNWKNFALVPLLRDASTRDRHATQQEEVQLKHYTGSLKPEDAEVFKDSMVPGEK
Assay text: 45Ca influx test in cultured neonatal rat DRG neurons, inhibition of capsaicin response
Assay type: cell-based
Run parameters: neonatal rat DRG neurons, capsaicin 0.5 μM, 45Ca influx; read-out: Antagonist Calcium Uptake Test (IC50)
Recorded metric: IC50 (nM)

// below: answered compounds
Problem: Provide measured IC50 value, entry: Cc1cc(CNC(=O)/C=C/c2ccc(C(F)(F)F)nc2CCc2ccccc2)cc(F)c1NS(C)(=O)=O [Example 173]
Solution: 200

Problem: Hello, please tell me recorded IC50 for this one: C#Cc1cc(CNC(=O)/C=C/c2ccc(C(F)(F)F)nc2Oc2cccnc2)cc(F)c1NS(C)(=O)=O [Example 134]
Solution: 2600

Problem: Tell us which IC50 value is on record for CS(=O)(=O)Nc1ccc(CNC(=O)/C=C/c2ccc(C(F)(F)F)nc2N2CCCC2)cc1F [Example 55]
Solution: 1400

Problem: For the compound CCC(C)Nc1nc(C(F)(F)F)ccc1/C=C/C(=O)NCc1ccc(NS(C)(=O)=O)c(F)c1 (centres unmarked) [Example 123] , report IC50.
Solution: 93

Problem: Specify reported IC50 for the compound shown: CCCCOc1nc(C(F)(F)F)ccc1/C=C/C(=O)NCc1cc(F)c(NS(C)(=O)=O)c(C(F)(F)F)c1 [Example 168]
Solution: 1800

[A] Cc1cc(CNC(=O)/C=C/c2ccc(C(F)(F)F)nc2CCc2ccccc2)ccc1NS(C)(=O)=O [Example 172]
[B] CC(C)(C)c1ccc(/C=C/C(=O)NCc2cc(F)c(NS(C)(=O)=O)c(F)c2)cn1 [Example 39]
Problem: Field: lower recorded IC50 (choose A or B ) State the label of the item chosen.
Solution: A

----------
System tested: vanilloid receptor (Rattus norvegicus)
Construct: DRG nerve cells from the primary culture of 2 days were equilibrated; endogenous in cells; host or cells: primary culture of dorsal root ganglion neurons from neonatal SD rats
Assay text: 45Ca influx test in cultured neonatal rat DRG neurons, inhibition of capsaicin response
Format: cell-based
Run parameters: neonatal rat DRG neurons, capsaicin 0.5 μM, 45Ca influx; read-out: Antagonist Calcium Uptake Test (IC50)
pIC50: −log10 of the molar value.
Recorded metric: pIC50

Some solved cases for reference:
Problem: For COCCNc1nc(C(F)(F)F)ccc1/C=C/C(=O)NCc1ccc(NS(C)(=O)=O)c(F)c1 , write its pIC50.
Solution: 6.29

Problem: Supply pIC50 value. Item: CS(=O)(=O)Nc1c(F)cc(CNC(=O)/C=C/c2ccc(C(F)(F)F)nc2-c2cccc(F)c2)cc1C#N
Solution: 6.05

Problem: Give pIC50 for the following compound: CCCCNc1nc(C(F)(F)F)ccc1/C=C/C(=O)N[C@H](C)c1ccc(NS(C)(=O)=O)c(F)c1
Solution: 7.55

Problem: Specify measured pIC50 for CC(C)Oc1nc(C(F)(F)F)ccc1/C=C/C(=O)NCc1cc(F)c(NS(C)(=O)=O)c(C#N)c1 .
Solution: 6.82

Problem: Please list pIC50 recorded for the compound CS(=O)(=O)Nc1c(F)cc(CNC(=O)/C=C/c2ccc(C(F)(F)F)nc2-c2cccc(F)c2)cc1F
Solution: 6.38

Problem: Tell me pIC50 reported for CCCCNc1nc(C(F)(F)F)ccc1/C=C/C(=O)NCc1ccc(NS(C)(=O)=O)c(C)c1
Solution: 7.12

Problem: Give pIC50 for C#Cc1cc(CNC(=O)/C=C/c2ccc(C(F)(F)F)nc2N2CCCC2)cc(F)c1NS(C)(=O)=O
Solution: 6.59

Problem: Supply recorded pIC50 for CCCCOc1nc(C(F)(F)F)ccc1CCC(=O)NCc1ccc(NS(C)(=O)=O)c(F)c1 here.
Solution: 5.92

[a] Cc1cc(CNC(=O)/C=C/c2ccc(C(F)(F)F)nc2N2CCCCC2)ccc1NS(C)(=O)=O
[b] Cc1cc(CNC(=O)/C=C/c2ccc(C(F)(F)F)nc2NC(C)C)cc(F)c1NS(C)(=O)=O
Problem: When a and b are compared, which has the higher number for pIC50? Give the chosen item's label as your response.
Solution: b

[P] COCCNc1nc(C(F)(F)F)ccc1/C=C/C(=O)N[C@H](C)c1ccc(NS(C)(=O)=O)c(F)c1
[Q] C#Cc1cc(CNC(=O)/C=C/c2ccc(C(F)(F)F)nc2CC(C)CC)cc(F)c1NS(C)(=O)=O (stereo not shown)
Problem: Endpoint returns the identifier whose pIC50 is numerically larger, either P or Q . // respond with label for picked entry
Solution: Q
(Q: 7.37, P: 6.96)

[I] C#Cc1cc(CNC(=O)/C=C/c2ccc(C(F)(F)F)nc2N(C)C)cc(F)c1NS(C)(=O)=O
[II] CCCNc1nc(C(F)(F)F)ccc1/C=C/C(=O)NCc1cc(F)c(NS(C)(=O)=O)c(F)c1
Problem: Quick check, higher pIC50 between I and II ? Let me know the label of the one you choose.
Solution: II

[I] COc1nc(C(C)(C)C)ccc1/C=C/C(=O)NCc1ccc(NS(C)(=O)=O)c(F)c1
[II] C#Cc1cc(CNC(=O)/C=C/c2ccc(C(F)(F)F)nc2N2CCN(C)CC2)cc(F)c1NS(C)(=O)=O
[III] Cc1cc(CNC(=O)/C=C/c2ccc(C(F)(F)F)nc2NCc2ccccc2)ccc1NS(C)(=O)=O
[IV] C#Cc1cc(CNC(=O)/C=C/c2ccc(C(F)(F)F)nc2OC)cc(F)c1NS(C)(=O)=O
Problem: Parameters: sort_field (pIC50), sort_dir (desc). Respond with an ordered listing of the labels, as requested.
Solution: IV, III, I, II

[A] C#Cc1cc(CNC(=O)/C=C/c2ccc(C(C)(C)C)nc2)cc(F)c1NS(C)(=O)=O
[B] CCCCCc1nc(C(F)(F)F)ccc1/C=C/C(=O)NCc1ccc(NS(C)(=O)=O)c(C)c1
[C] C=Cc1cc(CNC(=O)/C=C/c2ccc(C(F)(F)F)nc2N2CCOCC2)cc(F)c1NS(C)(=O)=O
Problem: Ascending by pIC50, please: list the compounds accordingly. List the labels according to the requested ordering.
Solution: A, C, B
(A: 6.28, C: 6.66, B: 7.27)

[a] CCCCNc1nc(C(F)(F)F)ccc1/C=C/C(=O)NCc1ccc(NS(C)(=O)=O)c(F)c1
[b] C#Cc1cc(CNC(=O)C#Cc2ccc(C(F)(F)F)nc2NCCCC)cc(F)c1NS(C)(=O)=O
[c] CCC/C(=C/C(=O)NCc1ccc(NS(C)(=O)=O)c(Cl)c1)c1ccc(C(F)(F)F)nc1CCC
[d] C#Cc1cc(CNC(=O)/C=C/c2cccnc2N2CCOCC2)cc(F)c1NS(C)(=O)=O
Problem: Please list these in order of increasing pIC50. Thank you! List the labels, following the order given in the request.
Solution: d, c, b, a
(d: 5.27, c: 5.89, b: 6.09, a: 6.40)

[1] CCCCOc1nc(C(F)(F)F)ccc1/C=C/C(=O)NCc1ccc(NS(C)(=O)=O)c(F)c1
[2] C#Cc1cc(CNC(=O)/C=C/c2ccc(C(F)(F)F)nc2Nc2ccccc2)cc(F)c1NS(C)(=O)=O
Problem: Given the two records 1 and 2 , choose the one whose pIC50 value is lower. Lab log: write the label of the selected item as the result.
Solution: 1
(1: 6.25, 2: 6.57)

Cited source: patent US7858621B2
